Give measured OD (450 nm) for each item. Keep answers brief.
# ASSAY_TARGET: T1, human TIGIT-Fc (human, UniProt Q495A1 22-141, limits assumed)
# T1 construct: not shown: Fc; not described
# T1 sequence (looked up): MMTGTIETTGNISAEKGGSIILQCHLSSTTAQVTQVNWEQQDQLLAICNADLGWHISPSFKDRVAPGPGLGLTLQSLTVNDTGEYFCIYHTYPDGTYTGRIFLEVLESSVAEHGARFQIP
# PROTOCOL: CD155 competition ELISA, single point; further: test concentration or dose not given here
Phrase the answer as number then unit, nothing more needed.

Consider the reported OD (450 nm) for these binders:
TIGIT-SC89 (Fc fusion, VHH-Fc) VHH: EVQLVESGGGLVQPGGSLRLSCAASGSMSSINAMGWFRQAPGKEREFVAAINYEGDRTYYADSVKGRFTISADNSKNTAYLQMNSLKPEDTAVYYCARWTRGLVSGTYYYYMDVWGQGTLVTVSS | 0.384 OD
TIGIT-SC49 (Fc fusion, VHH-Fc) VHH: EVQLVESGGGLVQPGGSLRLSCAASGRTFIGYHMGWFRQAPGKEREFVAAISWTGESTLYADSVKGRFTISADNSKNTAYLQMNSLKPEDTAVYYCARDDYGDYRRYFQHWGQGTLVTVSS | 0.382 OD
TIGIT-SC139 (Fc fusion, VHH-Fc) VHH: EVQLVESGGGLVQPGGSLRLSCAASGFTLENNMMGWFRQAPGKEREFVAAISRSGTLKAYADSVKGRFTISADNSKNTAYLRMNSLKPEDTAVYYCAGLTSGGAFSYYWGQGTLVTVSS | 0.51 OD
TIGIT-SC202 (Fc fusion, VHH-Fc) VHH: EVQLVESGGGLVQPGGSLRLSCAASGFTFSPSWMGWFRQAPGKEREWVASVLRGGYTWYADSVKGRFTISADNSKNTAYLQMNSLKPEDTAVYYCTTDGGYSGIVGFAWGQGTLVTVSS | 0.545 OD
TIGIT-SC179 (Fc fusion, VHH-Fc) VHH: EVQLVESGGGLVQPGGSLRLSCAASGFTFSPSWMGWFRQAPGKEREWVASVLRGGYTWYADSVKGRFTISADNSKNTAYLQMNSLKPEDTAVYYCASEVASGETDYWGQGTLVTVSS | 0.591 OD
TIGIT-SC90 (Fc fusion, VHH-Fc) VHH: EVQLVESGGGLVQPGGSLRLSCAASGDTFSSKAMGWFRQAPGKEREFVAAIRWSVSSTYYADSVKGRFTISADNSKNTAYLQMNSLKPEDTAVYYCARWTRGLVSGTYYYYMDVWGQGTLVTVSS | 0.519 OD

// each binder listed below needs its OD (450 nm)
1. TIGIT-SC156 (Fc fusion, VHH-Fc) VHH: EVQLVESGGGLVQPGGSLRLSCAASGNTFSGGFMGWFRQAPGKEREWVASVLRGGYTWYADSVKGRFTISADNSKNTAYLQMNSLKPEDTAVYYCTTEGYDFWSGYYDYWGQGTLVTVSS
2. TIGIT-SC15 (Fc fusion, VHH-Fc) VHH: EVQLVESGGGLVQPGGSLRLSCAASGSILSFNHIGWFRQAPGKEREGVAWIARYDGSTLYADSVKGRFTISADNSKNTAYLQMNSLKPEDTAVYYCARARGGYVDYWGQGTLVTVSS

Result block:
1. 0.701 OD
2. 0.576 OD
